Molecular target: T1, MPDZ_12, O75970
T1 sequence (O75970 1857-1958, limits assumed, looked up): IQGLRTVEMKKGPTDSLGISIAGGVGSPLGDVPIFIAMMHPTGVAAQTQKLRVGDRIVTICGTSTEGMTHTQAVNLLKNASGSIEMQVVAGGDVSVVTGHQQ
Test: holdup assay
Design: key: below the threshold = too weak to quantify, mostly under pKd 3.1 to 4
Conditions: plain residues with an end cap or a label only (N-terminal biotin on a linker: ado-ado)
RESULT TYPE: pKd

BINDER: PSHPRLQTHV [KIRREL2, Q6UWL6]
pKd: below the threshold

BINDER: SLNANEVEWF [RNF130, Q86XS8]
pKd: below the threshold

BINDER: DTKNYKQTSV [CRIPT, Q9P021]
pKd: below the threshold

BINDER: PYSESDDDWC [CACNA1A, O00555]
pKd: 3.92

BINDER: REEPDHSTEV [CCRL2, O00421]
pKd: below the threshold

Please state, for each entry, its recorded pKd.
1. TRKRSGEAAV [PFKM, P08237]
2. LESTTVGTSV [KARS1, Q15046]
3. NNNVVKVDSV [MTNR1A, P48039]

1. below the threshold
2. 3.62
3. below the threshold
